For each record, write down the corresponding Kd.
Target: VEGF (R&D systems, Minneapolis, Minn.) (UniProt P15692-4 27-191, limits assumed)
Sequence (P15692 other isoform, or with tags, fused parts or gaps limits assumed): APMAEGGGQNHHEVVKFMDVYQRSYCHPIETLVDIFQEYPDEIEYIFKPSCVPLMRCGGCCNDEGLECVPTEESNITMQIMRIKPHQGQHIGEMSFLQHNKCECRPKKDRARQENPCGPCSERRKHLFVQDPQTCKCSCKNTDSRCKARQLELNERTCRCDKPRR
Assay: BIAcore SPR
Description: RL was kept low to minimize avidity due to the dimeric nature of VEGF. No capture of the antibody was made on the reference surface to serve as a negative control. […] All the binding kinetics data were analyzed at least three separate determinations.
Reply numerically in nM, unit not repeated.

Please give the measured Kd for this binder: 95 (antibody, human IgG1, V domains shown) VH: EVQLVESGGGLVQPGGSLRLSCAASGYTFTNYGMNWVRQAPGKGLEWVGWINTYTGEPTYAADFKRRFTFSLDTSKSTAYLQMNSLRAEDTAVYYCAKYPDYYGSSHWYFDVWGQGTLVTVSS VL: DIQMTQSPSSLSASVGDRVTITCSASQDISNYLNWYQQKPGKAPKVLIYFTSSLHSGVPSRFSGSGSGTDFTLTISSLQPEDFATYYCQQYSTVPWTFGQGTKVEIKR
1.54

# repeat for 86 (seventh row of Table 7) (antibody, human IgG1, V domains shown, defined here by its substitutions; copies: 2 + 2) VH: EVQLVESGGGLVQPGGSLRLSCAASGYTFTFYGMNWVRQAPGKGLEWVGWINTYTGEPTYAADFKRRFTFSLDTSKSTAYLQMNSLRAEDTAVYYCAKYPHYDGGSHWYFDVWGQGTLVTVSS VL: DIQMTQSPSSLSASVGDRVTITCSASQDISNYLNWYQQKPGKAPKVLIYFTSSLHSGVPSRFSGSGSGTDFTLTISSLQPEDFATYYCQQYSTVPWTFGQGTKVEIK
0.282

The values you see were collected from patent US20140154255A1.
